- testedSystem: MAP kinase p38 (Homo sapiens) (UniProt O15264+Q15759+Q16539+P53778)
- assay: Activation of p38 in human A549 cells assessed as downregulation of cytochrome c expression in mitochondria by Western blot analysis
resultType: Activity

CCN1C[C@]2(COC)[C@H](O)C[C@@H](OC)[C@@]34[C@@H]5C[C@@]6(O)[C@H](OC(=O)c7ccccc7)[C@@H]5[C@@](OC(C)=O)([C@@H]([C@H](OC)[C@H]23)[C@H]14)[C@@H](O)[C@@H]6OC	Dose-dependent effect
CCN1C[C@@]2(COC)[C@H]3[C@@H](OC)[C@H]4C1[C@]3([C@@H](OC)C[C@H]2OC(C)=O)[C@@H]1C[C@@]2(O)[C@H](OC(=O)c3ccccc3)[C@@H]1[C@]4(OC(C)=O)[C@@H](O)[C@@H]2OC	Dose-dependent effect
C=C1[C@H]2C[C@@]3([C@@H]1O)[C@@H](CC2=O)[C@@]12C4[C@@H]3C[C@@H]1[C@@](C)(CC[C@@H]2O)CN4CC	Dose-dependent effect
CCN1C[C@]2(COC)CC[C@H](OC)[C@]34C1[C@H]([C@H](OC)[C@H]23)[C@]1(OC(C)=O)[C@H]2[C@@H](OC(=O)c3ccccc3)[C@](O)(C[C@H]24)[C@@H](OC)[C@@H]1O	Dose-dependent effect
